SYSTEM NAME: human HPK1 protein (Homo sapiens, UniProt Q92918)
Construct: recombinant human HPK1 protein (a.a. 1-346) was expressed in Sf9 insect cells; GST (N); purchased Signalchem M23-11G; host or cells: Sf9 insect cells (baculovirus)
Sequence (Q92918 1-346): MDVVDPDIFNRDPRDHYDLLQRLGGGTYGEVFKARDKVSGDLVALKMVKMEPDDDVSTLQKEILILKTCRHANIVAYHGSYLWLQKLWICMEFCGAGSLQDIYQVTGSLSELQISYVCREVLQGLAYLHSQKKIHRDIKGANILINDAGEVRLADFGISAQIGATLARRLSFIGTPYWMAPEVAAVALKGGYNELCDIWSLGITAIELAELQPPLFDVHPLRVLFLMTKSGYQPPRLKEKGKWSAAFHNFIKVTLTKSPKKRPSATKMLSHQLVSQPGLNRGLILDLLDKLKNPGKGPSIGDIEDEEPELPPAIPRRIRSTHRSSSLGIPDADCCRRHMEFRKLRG
ASSAY TEXT: Human HPK1 protein TR-FRET assay
Type: biochemical
CONDITION DESCRIPTION: 1 mM ATP, Table 20
pIC50: −log10 of the molar value.
PROPERTY LABEL: pIC50

pIC50 reported for this molecule CCN1CCN(Cc2ccc(NC(=O)N3Cc4cc(Oc5ccnc6[nH]c(=O)cnc56)cnc4C(C)C3)cc2C(F)(F)F)CC1 (single isomer, unassigned) [XIV-7] : 5.30 to 6.30

pIC50 reported for this molecule CCN1CCN(Cc2ccc(NC(=O)N3Cc4cc(Oc5ccnc6[nH]c(C)cc56)cnc4[C@H](C)C3)cc2C(F)(F)F)CC1 [XI-5] : > 6.30

pIC50 reported for this molecule C[C@@H]1CN(C(=O)Nc2ccc(CN3CCN(C)CC3)c(C(F)(F)F)c2)Cc2cc(Oc3ccnc4[nH]c(CO)cc34)cnc21 [XIV-75] : > 6.30

pIC50 reported for this molecule CCN1CCN(Cc2ccc(NC(=O)N3CCc4ncc(Oc5ccnc6[nH]c(C)cc56)cc4C3C)cc2C(F)(F)F)CC1 (single isomer, unassigned) [XI-9] : > 6.30

pIC50 reported for this molecule CC[C@@H]1CN(C(=O)Nc2ccc(CN3CCN(CCO)CC3)c(C(F)F)c2)Cc2cc(Oc3ccnc4[nH]c(C5CC5)cc34)ccc21 [XV-24] : > 6.30

pIC50 reported for this molecule C[C@H]1c2cc(Oc3ccnc4[nH]c(CO)cc34)ccc2CCN1C(=O)Nc1cnc(OC2CCN(C)CC2)c(C(F)(F)F)c1 [XIII-3] : > 6.30

pIC50 reported for this molecule CC[C@H]1CN(C(=O)Nc2ccc(CN3CCN(C)CC3)c(C(F)(F)F)c2)Cc2cc(Oc3ccnc4[nH]c(C(=O)NC)cc34)cnc21 [XIV-85] : > 6.30

pIC50 reported for this molecule CC[C@H]1CN(C(=O)Nc2ccc(CN3CCN(CCO)CC3)c(C(F)F)c2)Cc2cc(Oc3ncnc4[nH]c(C5CC5)cc34)ccc21 [XV-2] : > 6.30

pIC50 reported for this molecule CC[C@@H]1CN(C(=O)Nc2ccc(CN3CCNCC3)c(C(F)(F)F)c2)Cc2cc(Oc3ccnn4cc(C(=O)N(C)C)nc34)cnc21 [XIV-116] : 5.00 to 5.30

pIC50 reported for this molecule CC[C@@H]1CN(C(=O)Nc2ccc(CN3CCN(C)CC3)c(C(F)F)c2)Cc2cc(Oc3ncnc4[nH]c(C5CC5)cc34)ccc21 [XV-1] : > 6.30

pIC50 reported for this molecule CC[C@H]1CN(C(=O)Nc2ccc(CN3CCN(C)CC3)c(C(F)F)c2)Cc2cc(Oc3ccnc4[nH]c(C5(O)COC5)cc34)cnc21 [XIV-53] : > 6.30

pIC50 reported for this molecule CC[C@@H]1CN(C(=O)Nc2cnc(CN3CCN(CC)CC3)c(C(F)(F)F)c2)Cc2cc(Oc3ccnc4[nH]c(CCOC)cc34)cnc21 [XIV-26] : > 6.30

pIC50 reported for this molecule CC[C@H]1CN(C(=O)Nc2ccc(CN3CCN(C)CC3)c(C(F)(F)F)c2)Cc2cc(Oc3ccnc4[nH]c(CO)cc34)cnc21 [XIV-46] : > 6.30

pIC50 reported for this molecule CCN1CCN(Cc2ccc(NC(=O)N3Cc4cc(Oc5ccnc6[nH]ccc56)cnc4[C@H](C)C3)cc2C(F)(F)F)CC1 [XI-11] : > 6.30

pIC50 reported for this molecule CC[C@H]1CN(C(=O)Nc2ccc(CN3CCNCC3)c(C(F)(F)F)c2)Cc2cc(Oc3ccnc4[nH]c(-c5n[nH]c(=O)o5)cc34)cnc21 [XIV-130] : > 6.30

pIC50 reported for this molecule CC[C@@H]1CN(C(=O)Nc2ccc(CN3CCN(CCO)CC3)c(C(F)(F)F)c2)Cc2cc(Oc3ccnc4[nH]c(CO)cc34)ccc21 [XV-6] : > 6.30

pIC50 reported for this molecule CCN1CCN(Cc2ccc(NC(=O)N3CCc4ncc(Oc5cccc6[nH]ccc56)cc4C3C)cc2C(F)(F)F)CC1 (stereo not shown) [XI-12] : < 5.00

pIC50 reported for this molecule CN1CCN(Cc2ccc(NC(=O)N3Cc4cc(Oc5ccnc6[nH]c(C7(O)CC7)cc56)ccc4C(C(F)(F)F)C3)cc2C(F)(F)F)CC1 (stereo not shown) [XVIII-12] : > 6.30

pIC50 reported for this molecule CC[C@@H]1CN(C(=O)Nc2cnc(OC3CCN(C)CC3)c(C(F)(F)F)c2)Cc2cc(Oc3ccnc4[nH]c(CCOC)cc34)cnc21 [XIV-34] : > 6.30

pIC50 reported for this molecule CC[C@H]1CN(C(=O)Nc2ccc(CN3CCNCC3)c(C(F)(F)F)c2)Cc2cc(Oc3ccnc4[nH]c(CO)cc34)ccc21 [XV-5] : > 6.30

pIC50 reported for this molecule Cc1cc2c(Oc3cnc4c(c3)CN(C(=O)Nc3ccc(CN5CCN(C)CC5)c(OC(F)(F)F)c3)C[C@H]4C)ccnc2[nH]1 [XIV-89] : > 6.30

pIC50 reported for this molecule C[C@H]1CN(C(=O)Nc2ccc(CN3CCN(C)CC3)c(C(F)(F)F)c2)Cc2cc(Oc3c(F)cnc4[nH]c(C(=O)N(C)C)cc34)ccc21 [XV-39] : > 6.30

pIC50 reported for this molecule CC[C@@H]1CN(C(=O)Nc2cnc(O[C@H]3CCN[C@@H](C)C3)c(C(F)(F)F)c2)Cc2cc(Oc3ccnc4[nH]c(C)cc34)cnc21 [XIV-71] : 5.30 to 6.30

pIC50 reported for this molecule CC[C@H]1CN(C(=O)Nc2ccc(CN3CCN(C)CC3)c(C(F)(F)F)c2)Cc2cc(Oc3ccnc4[nH]c(C5CC5)cc34)cnc21 [XIV-72] : > 6.30

pIC50 reported for this molecule CCN1CCN(Cc2ccc(NC(=O)N3Cc4cc(Oc5ccnc6[nH]c(-c7cnn(C)c7)nc56)cnc4C(C)C3)cc2C(F)(F)F)CC1 (single isomer, unassigned) [XIV-30] : > 6.30
